Target desc: M3 muscarinic receptor (Homo sapiens, UniProt P20309)
Sequence (P20309 whole entry): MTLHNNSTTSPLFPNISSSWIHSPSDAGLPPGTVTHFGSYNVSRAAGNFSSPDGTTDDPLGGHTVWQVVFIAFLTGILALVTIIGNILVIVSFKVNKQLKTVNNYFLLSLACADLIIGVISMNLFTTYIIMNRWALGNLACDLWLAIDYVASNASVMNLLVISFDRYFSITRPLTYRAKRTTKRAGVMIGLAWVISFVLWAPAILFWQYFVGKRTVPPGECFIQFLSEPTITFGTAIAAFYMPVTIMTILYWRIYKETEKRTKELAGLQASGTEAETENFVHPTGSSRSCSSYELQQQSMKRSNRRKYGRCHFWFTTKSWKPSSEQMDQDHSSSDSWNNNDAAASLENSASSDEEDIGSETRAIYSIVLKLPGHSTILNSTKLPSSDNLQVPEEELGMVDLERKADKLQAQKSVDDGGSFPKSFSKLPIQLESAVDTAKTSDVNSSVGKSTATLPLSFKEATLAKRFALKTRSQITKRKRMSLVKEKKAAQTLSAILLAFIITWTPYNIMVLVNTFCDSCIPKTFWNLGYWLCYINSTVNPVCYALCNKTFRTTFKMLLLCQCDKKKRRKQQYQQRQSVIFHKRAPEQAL
Readout: Ki

Q: Please indicate Ki recorded for C[N+](C)(CCCc1ccccc1)C1CC2CCC1C2OCc1ccccc1 (stereo not shown) [Example 6]
Result: < 100 nM

Source of measurements: patent US20090182033A1
